Data provenance is ChEMBL document CHEMBL3779817.

MEASUREMENT_PROTOCOL: Kinetic solubility in DMSO solution at pH 7.4 after 2 hrs by HPLC-UV analysis
Format: physicochemical
MEASUREMENT_CONTEXT: DMSO solution, pH 7.4; read-out: Kinetic_solubility
Below is a list of entries, each paired with its recorded solubility kinetic at 2 h value.
QUANTITY_KIND: solubility kinetic at 2 h (µg/mL)

> print(dat)
                            compound.string  quantitative.readout
1  CC(C)c1cc2c(=O)c(C(=O)NC34CC5CC(CC(C5)C3)C4)cn(CCN(C)C)c2cc1F                  12.1
2  CCCCCn1c2c(c(O)c(C(=O)NC34CC5CC(CC(C5)C3)C4)c1=O)CCCC2                   1.3
3  CN(C)CCn1cc(C(=O)NC23CC4CC(CC(C4)C2)C3)c(=O)c2ccc(F)cc21                   5.6
4  CCCCCn1c(=O)c(C(=O)NC23CC4CC(CC(C4)C2)C3)c(O)c2cc(C(C)C)ccc21                   1.9
5  CCCCCn1c(=O)c(C(=O)NC23CC4CC(CC(C4)C2)C3)c(O)c2ccccc21                   1.4
6  CC(C)c1ccc2c(c1)c(=O)c(C(=O)NC13CC4CC(CC(C4)C1)C3)cn2CCN(C)C                   4.5
7  CCCCCn1c(=O)c(C(=O)NC23CC4CC(CC(C4)C2)C3)c(O)c2ccc(F)cc21                   1.5
8  CCCCCn1cc(C(=O)NC23CC4CC(CC(C4)C2)C3)c(=O)c2ccc(F)cc21                 0.014
9  CCCCCn1cc(C(=O)NC23CC4CC(CC(C4)C2)C3)c(=O)c2cc(C(C)C)ccc21                     1

====

SYSTEM_TESTED: Cannabinoid receptor 1 (Homo sapiens) (UniProt P21554)
Sequence (P21554 whole entry): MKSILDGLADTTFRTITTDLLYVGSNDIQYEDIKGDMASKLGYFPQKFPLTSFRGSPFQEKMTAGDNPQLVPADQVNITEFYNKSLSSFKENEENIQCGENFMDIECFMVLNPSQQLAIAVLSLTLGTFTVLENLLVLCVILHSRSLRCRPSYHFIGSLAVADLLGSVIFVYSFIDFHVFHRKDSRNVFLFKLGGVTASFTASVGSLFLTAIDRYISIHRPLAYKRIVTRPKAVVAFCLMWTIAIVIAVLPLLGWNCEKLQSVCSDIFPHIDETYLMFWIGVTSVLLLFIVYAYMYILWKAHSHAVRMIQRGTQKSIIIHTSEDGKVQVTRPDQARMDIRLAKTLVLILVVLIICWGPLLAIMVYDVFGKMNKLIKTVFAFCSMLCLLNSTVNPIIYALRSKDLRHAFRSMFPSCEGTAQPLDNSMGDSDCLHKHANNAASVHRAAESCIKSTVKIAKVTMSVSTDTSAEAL
MEASUREMENT_CONTEXT: HEK293
Description: Displacement of [3H]-CP-55940 from human recombinant CB1 receptor expressed in HEK293 cells after 90 mins by Competition binding assay
Field: label. Allowed values: t (Kieq < 500 nM) or f (Kieq >= 500 nM).

> print(dat)
                            compound.string                             system.tested  group
1  CC(C)c1ccc2c(c1)c(=O)c(C(=O)NC13CC4CC(CC(C4)C1)C3)cn2CCN(C)C  Cannabinoid receptor 1 (Homo sapiens) (UniProt P21554)      f
2  CC(C)c1ccc2c(c1)c(=O)c(C(=O)NC13CC4CC(CC(C4)C1)C3)cn2CCN1CCS(=O)(=O)CC1  Cannabinoid receptor 1 (Homo sapiens) (UniProt P21554)      f
3  CCCCCn1c(=O)c(C(=O)NC23CC4CC(CC(C4)C2)C3)c(O)c2ccc(F)cc21  Cannabinoid receptor 1 (Homo sapiens) (UniProt P21554)      f
4  O=C(NC12CC3CC(CC(C3)C1)C2)c1cn(CCN2CCS(=O)(=O)CC2)c2cc(F)ccc2c1=O  Cannabinoid receptor 1 (Homo sapiens) (UniProt P21554)      f
5  CCCCCn1cc(C(=O)NC23CC4CC(CC(C4)C2)C3)c(=O)c2ccc(F)cc21  Cannabinoid receptor 1 (Homo sapiens) (UniProt P21554)      t
6  COCCOCn1cc(C(=O)NC23CC4CC(CC(C4)C2)C3)c(=O)c2ccc(F)cc21  Cannabinoid receptor 1 (Homo sapiens) (UniProt P21554)      f
7  COc1ccc(CNC(=O)c2c(O)c3cc(-c4cccs4)ccc3n(CCCCO)c2=O)cc1  Cannabinoid receptor 1 (Homo sapiens) (UniProt P21554)      f
8  CCCCCn1c(=O)c(C(=O)NCc2ccc(OC)cc2)c(O)c2cc(-c3cccs3)ccc21  Cannabinoid receptor 1 (Homo sapiens) (UniProt P21554)      t
9  Cc1ccc(Cn2nc(C(=O)N[C@@H]3C(C)(C)[C@@H]4CC[C@@]3(C)C4)cc2-c2ccc(Cl)c(C)c2)cc1  Cannabinoid receptor 1 (Homo sapiens) (UniProt P21554)      f
